B1: mRNA-splicing (parent)
chain: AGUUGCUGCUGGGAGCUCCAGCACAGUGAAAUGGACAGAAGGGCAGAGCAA

# Variants of: B1
# test: exon inclusion enrichment index; higher = more inclusion; WT1 exon 5 minigene, HEK293
exon inclusion enrichment index below 2 gives Condition not met; exon inclusion enrichment index at or above it gives Condition met.

construct-sequence	category
AGUUACCACCGGGAGCUCCAGCACAGUGAAAUGGACAGCCGGGCAGAGCAA	Condition met
AGUUCACAGUGGGAGCUCCAGCACAGUGAAAUGGACAGAAGGGCAGAGCAA	Condition not met
AGUUCGCGCCGGGAGCUCCAGCACAGUGAAAUGGACACGAGGGCAGAGCAA	Condition met
AGUUAGGGAUGGGAGCUCCAGCACAGUGAAAUGGACAGAAGGGCACUGCAA	Condition not met
AGUUCGCGCCGGGAGCUCCCGCACAGUGAAAUGGACAGAAGGGCAGAGCAA	Condition met
AGUUGCUGCUUAGAGCUCCAGCACAGUGAAAUGGACAGAAGGGCAGAGCAA	Condition not met
AGUUCUUCUCGGGAGCUCCAGCACCUUGAAAUGGACAGAAGGGCAGAGCAA	Condition met
AGUUUCUUUUGGGAGCUCCAGCACAGUGAAAUGGACAGAAGGGACGAGCAA	Condition not met
AGUUAUAUAUGGGAGCUCCAGCAAAGUGAAAUGGACAGAAGGGCAGAGCAA	Condition not met
AGUUACCACCGGGAGCUCCAGCACAGUGAAAUGGACAGAAGGGCAGUUCAA	Condition not met
AGUUGCCGCCGGGAGCUCCAGCACAGUGAAAUGGACAGAAGGGCAGAGCAA	Condition met
AGUUCUUCUCGGGAGCUCCAGCACAGUGAAAUGGACAGAAGGAGAGAGCAA	Condition met
AGUUACCACCGGGACAUCCAGCACAGUGAAAUGGACAGAAGGGCAGAGCAA	Condition not met
AGUUACCACCGGGAGCUCCAGCACAGUGACCUGGACAGAAGGGCAGAGCAA	Condition met
AGUUUCCGCCGGGAGCUCCAGCACAGUGAAAUGGACAGAAGGGCAGAGCAA	Condition met
AGUUAGGGAUGGAUGCUCCAGCACAGUGAAAUGGACAGAAGGGCAGAGCAA	Condition not met
AGUUGCUGCUGGGAGAGCCAGCACAGUGAAAUGGACAGAAGGGCAGAGCAA	Condition not met
AGUUGCUGCUGGGAGCUCCAGCACAGUGAAAUGGGCAGAAGGGCAGAGCAA	Condition not met
AGUUCACACAGGGAGCUCCAGCACAGUGAAAUGGACAGCCGGGCAGAGCAA	Condition not met
AGUUCGCGCCGGGAGCUCCACCACAGUGAAAUGGACAGAAGGGCAGAGCAA	Condition met
AGUUCUUCUGUGGAGCUCCAGCACAGUGAAAUGGACAGAAGGGCAGAGCAA	Condition not met
AGUUGCUGCUGGGAGCCCCAGCACAGUGAAAUGGACAGAAGGGCAGAGCAA	Condition not met
AGUUGCUGCUGGGAGCUCCAGCACAGUGAAAUGGACAGAAGGGCACCGCAA	Condition not met
AGUUCGCGCCGGGGUCUCCAGCACAGUGAAAUGGACAGAAGGGCAGAGCAA	Condition not met
AGUUGAAGAAGGUUGCUCCAGCACAGUGAAAUGGACAGAAGGGCAGAGCAA	Condition not met
AGUUGACGACGGGAGCUCCAGCACAGUGAAAUGCACAGAAGGGCAGAGCAA	Condition not met
AGUUCUUCGUGGGAGCUCCAGCACAGUGAAAUGGACAGAAGGGCAGAGCAA	Condition met
AGUUGACGACGGGAGCUCCAGCACAGUGAAACUGACAGAAGGGCAGAGCAA	Condition met
AGUGCGCGCCGGGAGCUCCAGCACAGUGAAAUGGACAGAAGGGCAGAGCAA	Condition not met
AGUUCGCGCCGGGAGCUCCAGCACAGUGAACAGGACAGAAGGGCAGAGCAA	Condition met
AGUUCACACAGGGAGCCCCAGCACAGUGAAAUGGACAGAAGGGCAGAGCAA	Condition not met
AGUUGAAGAAGGGAGCUCCAGCACAGUGAAAUGGACAGAUGGGCAGAGCAA	Condition not met
AGUUACCACCGGGAGCUCCAGCAUUGUGAAAUGGACAGAAGGGCAGAGCAA	Condition met
AGUUAUAUAUGGGAGCUCCAGCACAGUGAAAUGGACAGAAGGGCAGAUCAA	Condition not met
AGUUAUGUAUGGGAGCUCCAGCACAGUGAAAUGGACAGAAGGGCAGAGCAA	Condition not met
AGUUACCACCGGGAGCUCCAGCAGUGUGAAAUGGACAGAAGGGCAGAGCAA	Condition met
